assay: Solubility of insoluble drugs in F96 LMBW vehicle (Example 4); format: physicochemical; conditions: aqueous with cosolvent or surfactant or cyclodextrin, thermodynamic from solid
Returns one of condition met or condition not met; condition met when solubility is >= 20 mg/mL.

Compound | Label class
C[C@@H](O[C@H]1OCCN(Cc2n[nH]c(=O)[nH]2)[C@H]1c1ccc(F)cc1)c1cc(C(F)(F)F)cc(C(F)(F)F)c1 [Aprepitant] | condition not met
Cc1ccc(-c2cc(C(F)(F)F)nn2-c2ccc(S(N)(=O)=O)cc2)cc1 [Celecoxib] | condition not met
N[C@@H](Cc1ccc(O)c(O)c1)C(=O)O [Levodopa] | condition not met

Task: Tell me whether solubility is at least 20 mg/mL here: CC(C)Cc1ccc(C(C)C(=O)O)cc1 (centres unmarked) [Ibuprofen]
Result: condition met

Task: Could you tell me if the measured solubility of CC(C)c1cccc(C(C)C)c1O [Propofol] reaches 20 mg/mL or more?
Result: condition met

Task: Dear colleague, could you confirm whether CC1=C(C/C=C(\C)CCC[C@H](C)CCC[C@H](C)CCCC(C)C)C(=O)c2ccccc2C1=O [Phytonadione] has solubility at or above 20 mg/mL?
Result: condition met

* * *

Assay: Voriconazole solubility in LMBW versus binary/ternary mixtures of L, M, B and alcohol (Example 2)
Type: physicochemical
Details: aqueous with cosolvent or surfactant or cyclodextrin, thermodynamic from solid; vehicle % wt in water: lecithin 25; liposome, hazy; pH 4.5-5, RT
Protocol: For this study, voriconazole was used as the insoluble drug. To determine solubility in each combination, voriconazole was added to each combination and mixed until it no longer would dissolve. For each mixture, the pH was adjusted to pH 4.5-5, equilibrated at room temperature, and then passed through a 0.2-micron filter. The filtrate was analyzed by HPLC for voriconazole concentration. Each HPLC-determined voriconazole concentration is noted as a “Voriconazole solubility” in the tables below.
Measurement label: solubility
Answers without a unit are incomplete; give the number and then its unit.

# solubility of C[C@@H](c1ncncc1F)[C@](O)(Cn1cncn1)c1ccc(F)cc1F [Voriconazole] = 800 µg/mL

* * *

test: Voriconazole solubility in LMBW versus binary/ternary mixtures of L, M, B and alcohol (Example 2); type: physicochemical; conditions: aqueous with cosolvent or surfactant or cyclodextrin, thermodynamic from solid; vehicle % wt in water: lecithin 25, glycocholic acid 10.6, benzyl alcohol 4.5, ethanol 6.5; micelle solution, hazy; pH 4.5-5, RT
Measurement label: solubility (µg/mL)
Write the number in µg/mL without appending the unit.

Noted for C[C@@H](c1ncncc1F)[C@](O)(Cn1cncn1)c1ccc(F)cc1F [Voriconazole] : its solubility reads 8000

* * *

experiment: Voriconazole solubility in LMBW versus binary/ternary mixtures of L, M, B and alcohol (Example 2); format: physicochemical; details: micelle solution (lecithin and glycocholic acid in water), aqueous with cosolvent or surfactant or cyclodextrin, thermodynamic from solid; vehicle % wt in water: lecithin 25, glycocholic acid 10.6; micelle solution, hazy; pH 4.5-5, RT
Measurement label: solubility (µg/mL)
Response body: numeric value in µg/mL, unit text excluded.

// recorded solubility for C[C@@H](c1ncncc1F)[C@](O)(Cn1cncn1)c1ccc(F)cc1F : 7100

* * *

assay: Voriconazole solubility in LMBW versus binary/ternary mixtures of L, M, B and alcohol (Example 2); assay type: physicochemical; conditions: alcohol solution (benzyl alcohol and ethanol in water), pH 4.5, aqueous with cosolvent or surfactant or cyclodextrin, thermodynamic from solid
Measurement label: solubility (mg/mL)
Enter your answer as a number in mg/mL; do not include the unit.

solubility recorded for this compound, C[C@@H](c1ncncc1F)[C@](O)(Cn1cncn1)c1ccc(F)cc1F , is 1.1

Value source: patent US11541006B2
